- system-tested: UniProt:Q13547
- Sequence (Q13547 whole entry, the tested form may be a part): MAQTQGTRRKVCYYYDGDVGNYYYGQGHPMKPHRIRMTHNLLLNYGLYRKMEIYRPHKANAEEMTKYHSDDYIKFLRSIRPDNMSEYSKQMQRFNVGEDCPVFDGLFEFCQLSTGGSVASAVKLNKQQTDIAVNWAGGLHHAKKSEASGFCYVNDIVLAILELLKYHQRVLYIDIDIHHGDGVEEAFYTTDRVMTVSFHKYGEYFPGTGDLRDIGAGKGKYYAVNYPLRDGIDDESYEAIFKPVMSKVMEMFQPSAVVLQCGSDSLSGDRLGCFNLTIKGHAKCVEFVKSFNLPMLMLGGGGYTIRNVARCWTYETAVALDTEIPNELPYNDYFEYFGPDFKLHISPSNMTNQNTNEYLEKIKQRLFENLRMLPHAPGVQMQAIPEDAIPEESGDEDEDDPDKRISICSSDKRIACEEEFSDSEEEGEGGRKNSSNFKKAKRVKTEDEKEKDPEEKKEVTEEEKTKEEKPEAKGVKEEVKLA
- assay-method-text: Inhibition of human recombinant HDAC1 (1 to 482 residues) expressed in Baculovirus using Ac-Leu-Gly-Lys(Ac)-AMC as substrate preincubated for 5 mins followed by substrate addition measured after 30 mins by fluorescence assay
readout-name: IC50 (nM)

| compound-smiles | system-tested | readout-name | result-number |
| --- | --- | --- | --- |
| Nc1ccccc1NC(=O)c1ccc(CNC(=O)c2ccc3cncn3c2)cc1 | UniProt:Q13547 | IC50 | 93 |
| Nc1ccccc1NC(=O)c1ccc(Cn2cc(-c3ccc(C(=O)NCc4cccnc4)cc3)nn2)cc1 | UniProt:Q13547 | IC50 | 55 |
| Nc1ccccc1NC(=O)c1ccc(CCn2cc(-c3cccnc3)nn2)cc1 | UniProt:Q13547 | IC50 | 180 |
| Nc1ccc(CNC(=O)Nc2ccc(C(=O)Nc3ccccc3N)cc2)cn1 | UniProt:Q13547 | IC50 | 330 |
| Nc1ccccc1NC(=O)c1ccc(CNC(=O)c2cc3cnccc3[nH]2)cc1 | UniProt:Q13547 | IC50 | 84 |
| Nc1ccccc1NC(=O)c1ccc(NC(=O)NCc2ccc(F)nc2)cc1 | UniProt:Q13547 | IC50 | 280 |
| Nc1ccccc1NC(=O)c1ccc(NC(=S)NCc2cncc(F)c2)cc1 | UniProt:Q13547 | IC50 | 440 |
| Nc1ccccc1NC(=O)c1ccc(NC(=S)NCc2nc3ccccc3[nH]2)cc1 | UniProt:Q13547 | IC50 | 46 |
| Nc1ccccc1NC(=O)c1ccc(NC(=S)NCc2cccnc2)cc1 | UniProt:Q13547 | IC50 | 1600 |
| Nc1ccccc1NC(=O)c1ccc(NC(=S)NCc2ccccc2F)cc1 | UniProt:Q13547 | IC50 | 300 |
| Nc1cccc(CNC(=S)Nc2ccc(C(=O)Nc3ccccc3N)cc2)c1 | UniProt:Q13547 | IC50 | 220 |
| Nc1ccccc1NC(=O)c1ccc(NC(=S)NCc2ccc(F)cc2)cc1 | UniProt:Q13547 | IC50 | 300 |
| Cc1ccc(CNC(=S)Nc2ccc(C(=O)Nc3ccccc3N)cc2)cn1 | UniProt:Q13547 | IC50 | 260 |
| Nc1ccccc1NC(=O)c1ccc(NC(=S)NCc2cccc(F)c2)cc1 | UniProt:Q13547 | IC50 | 170 |
| Nc1ccccc1NC(=O)c1ccc(CNC(=O)c2cc3cnccc3s2)cc1 | UniProt:Q13547 | IC50 | 83 |
| Nc1ccccc1NC(=O)c1ccc(CNC(=O)c2ccn3ccnc3c2)cc1 | UniProt:Q13547 | IC50 | 87 |
| Nc1ccc(CNC(=S)Nc2ccc(C(=O)Nc3ccccc3N)cc2)cn1 | UniProt:Q13547 | IC50 | 200 |
| Nc1ccccc1NC(=O)c1ccc(NC(=O)NCc2cccnc2)cc1 | UniProt:Q13547 | IC50 | 220 |
| Nc1ccccc1NC(=O)c1ccc(CNC(=O)c2ccc3cn[nH]c3c2)cc1 | UniProt:Q13547 | IC50 | 240 |
| Nc1ccccc1NC(=O)c1ccc(CNC(=O)c2cc3cccnc3[nH]2)cc1 | UniProt:Q13547 | IC50 | 33 |
| Nc1ccccc1NC(=O)c1ccc(NC(=S)NCc2ccc(F)nc2)cc1 | UniProt:Q13547 | IC50 | 370 |
| Nc1ccccc1NC(=O)c1ccc(NC(=O)/C=C/c2cccnc2)cc1 | UniProt:Q13547 | IC50 | 620 |
